tested on: PLK2; details: concentration: 1 μM, replicates: in singlicate; n = 1;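 note: KINOMEscan kinase panel screen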
%Inh values by entry
measured.endpoint: %Inh (%)

• COc1cc(Nc2nccc(N3CCC(NC(=O)Nc4cc(C)ccc4C)C3)n2)cc(OC)c1OC (stereo not drawn) = 0
• Fc1cc(Cl)ccc1Nc1ccnc2cc(-c3ccc(CN4CCCCC4)o3)ccc12 = 0
• Cl.c1ccc(-c2n[nH]cc2-c2ccnc(-c3ccc(CN4CCOCC4)cc3)c2)nc1 = 0
• Cl.NC(=O)c1cccc(Nc2nccc(Nc3ccc(Oc4cccc(Cl)c4)c(Cl)c3)n2)c1 = 0
• O=C(Nc1ccccc1)Nc1cccc(Oc2ccc3nccn3n2)c1 = 0
• Cl.O=C(Nc1cccc(-c2nn3ncccc3c2-c2ccnc(Nc3cccnc3)n2)c1)c1c(F)cccc1F = 0
• O=S(=O)(c1ccc(-c2ccnc3[nH]ccc23)cc1)N1CCCC1 = 4
• Cc1ccc(NC(=O)Nc2cc(C(C)(C)C)nn2-c2ccccc2)cc1 = 0
• CCn1c(-c2cccnc2O)nc2cnccc21 = 0
• CCn1c(-c2ccccn2)nc2cnccc21 = 0
• O=C(Nc1n[nH]c2nc(-c3nccs3)c(Br)cc12)C1CCCC1 = 0
• Nc1ncnc2[nH]c(-c3ccccc3)nc12 = 16
• Cn1ccc2ncnc(Oc3ccc(NC(=O)Nc4ccccc4)cc3)c21 = 0
• Fc1cccc(COc2nnc(-c3ccc4c(c3)CCO4)o2)c1 = 9
• Cc1cccc(-c2nc(Nc3ccncc3)c3ccccc3n2)n1 = 0
• CC(C)(C)c1ccc(C(=O)Nc2cn3cc(Cl)ccc3n2)cc1 = 0
• COc1cccc(NC(=O)NC2CCN(c3ccnc(Nc4ccc(F)cc4)n3)C2)c1 (stereo not drawn) = 0
• Clc1cc(Cl)cc(Nc2ccnc(Nc3cc(Cl)cc(Cl)c3)n2)c1 = 3
• Cc1cccc(-c2nc(-c3ccc(S(C)(=O)=O)cc3)sc2-c2ccnc(NCCc3ccccc3)c2)c1 = 5
• Cn1ccc2ncnc(Oc3ccc(Nc4nc5ccccc5[nH]4)cc3)c21 = 0
• COc1ccc(C2=C(Nc3cccc(C(=O)O)c3)C(=O)NC2=O)cc1 = 48
• COc1ccc(CNC(=O)NC2CCN(c3ccnc(Nc4cc(OC)c(OC)c(OC)c4)n3)C2)cc1 (stereo not drawn) = 0
• COc1cc2ncnc(Nc3ccc4nc(-c5ccccc5)[nH]c4c3)c2cc1OC.Cl = 0
• C[C@@H]1CCCCN1c1cc(-c2ccc3c(N)n[nH]c3c2)nc(N)n1 = 0

====

%Inh values by entry
tested on: MEK4; construct: gene MAP2K4; conditions: concentration: 1 μM, replicates: in singlicate; n = 1
measured.endpoint: %Inh (%)

• Cc1cccc(-c2nc(C)cc(Nc3ccncc3)n2)n1 [GSK257997] = 32
• CS(=O)(=O)c1ccc(-c2nc3n(c2-c2ccncc2)CCC3)cc1 [SKF-105942] = 8
• O=C1NC(=O)C(N2CCc3ccccc32)=C1c1ccccc1Cl [SB-373598] = 9
• O=C(Nc1n[nH]c2nc(-c3nccs3)c(Br)cc12)C1CCCC1 [SB-742609] = 30

====

%Inh values by entry
system: LZK; construct: gene MAP3K13; conditions: concentration: 1 μM, replicates: in singlicate; n = 1
measured.endpoint: %Inh (%)

- O=C1NC(=O)C(N2CCc3ccccc32)=C1c1ccccc1Cl [SB-373598]: 0
- CN(C)CCN(C)C(=O)c1cc(-c2ccncc2)c(-c2ccc(Cl)c(O)c2)o1.Cl.Cl [SB-710397]: 15
- COC(=O)c1c(-c2ccccc2)c2cc(OC)ccc2c(=O)n1Cc1ccccc1: 0
- Cn1cncc1-c1ccc2ncnc(Nc3ccc(OCc4ccccc4)cc3)c2c1 [GW320571]: 0
- Cc1cc(N2Cc3ccccc3C2)nc(Nc2ccc(S(=O)(=O)N3CCOCC3)cc2)n1.Cl [GSK1669917]: 0
- CCCc1ccc(S(=O)(=O)NC2CCN(c3ccnc(Nc4ccc(F)cc4)n3)C2)cc1 (stereo not drawn) [GSK1379715]: 0
- O=c1cc(N2CCOCC2)nc2n(Cc3cccc(Cl)c3Cl)ccn12 [GSK2286295]: 0
- COc1cccc(-c2cc(-c3c[nH]nc3-c3ccccn3)ccn2)c1 [GW680338]: 28
- Cl.Oc1ccc(-c2nc(-c3ccccc3)[nH]c2-c2ccncc2)cc1 [SB-428218]: 47
- Cc1ccc(C(=O)Nc2ccc(Nc3ccnc4cc(-c5ccccn5)ccc34)cc2O)cc1.Cl [GW440146]: 10
- O=C(Nc1n[nH]c2nc(-c3nccs3)c(Br)cc12)C1CC1 [SB-742251]: 26
- CC(=O)Nc1nc2cnc(Nc3cc(NC(=O)c4cccc(CCC#N)c4)ccc3C)nc2s1: 24
- O=C(Nc1ccc2c(c1)OCO2)NC1CCN(c2ccnc(Nc3ccc(F)cc3)n2)C1 (stereo not drawn) [GSK1379724]: 0
- CC(C)(C)c1ccc(C(=O)Nc2cn3cc(Cl)ccc3n2)cc1: 0
- O=C(Nc1n[nH]c2cc(-c3cccc(F)c3F)ccc12)C1CC1 [SB-733894]: 100
- Cn1ccc2ncnc(Oc3ccc(Nc4nc5ccccc5[nH]4)cc3)c21: 0
- Cc1cc(-c2ccc3c(c2)CC[C@@H](N[C@@H](C)c2ccccc2)C3)cnc1N.Cl [GW412617]: 7
- Cc1ccc(NC(=O)Nc2cccc(Cl)c2)cc1-c1ccc(C(=O)Nc2ccncc2)cc1 [GSK1398468]: 0
- Fc1cccc(COc2nnc(-c3ccc4c(c3)CCO4)o2)c1: 14
- Clc1cc(Cl)cc(Nc2ccnc(Nc3cc(Cl)cc(Cl)c3)n2)c1 [GSK175726]: 0
- COc1cc2ncnc(Nc3ccc4nc(-c5ccccc5)[nH]c4c3)c2cc1OC.Cl [GW282450]: 0
- COC(=O)c1c(-c2ccccc2)c2cc(C(=O)O)ccc2c(=O)n1Cc1ccccc1: 0
- COc1ccc(Nc2nccc(-c3cccc(NC(=O)c4cc5cc(F)ccc5[nH]4)c3)n2)cc1 [GSK1229782]: 33
- Cc1c(O)cccc1Nc1ccnc2ccc(C(F)(F)F)cc12.Cl [GW466413]: 14
- COc1ccc2nc(-c3cccc(C)n3)nc(Nc3ccncc3)c2c1 [GSK204919]: 0
- Cc1cccc(-c2cc(Nc3ccncc3)c3ccccc3n2)n1 [GSK223675]: 0
- Cc1cccc(-c2nc(-c3ccc(S(C)(=O)=O)cc3)sc2-c2ccnc(NCCc3ccccc3)c2)c1: 2
- O=S(=O)(c1ccc(-c2ccnc3[nH]ccc23)cc1)N1CCCC1 [GSK846226]: 0
- COc1cc2nccc(Nc3ccc(NC(=O)c4ccc(C)cc4)c(O)c3)c2cc1OC.Cl [GW440132]: 0
- COc1ccc(Nc2nccc(NCCNC(=O)Nc3ccccc3F)n2)cc1 [GSK1379901]: 7
